- Test system: CCRIS mutagenicity, Ames/micronucleus/aberration tests
- assay_text: CCRIS mutagenicity studies
- study_conditions: Test System: AMES SALMONELLA TYPHIMURIUM; Strain/Indicator: TA1537; Metabolic Activation: S-9; Method: STANDARD PLATE
Calls of active or inactive are those of the source. How the calls were made is not given here.
One label from this list, please: active, inactive

Please indicate how the test categorized CC(C)NCC(O)COc1cccc2c1OCC(O)C2 (stereo not given) .
inactive

Please indicate how the test categorized `COc1cc(O)c2c(c1)C(=O)c1c(O)c(C)cc(O)c1C2=O` .
active

Please indicate how the test categorized `CCCN(C(=O)CCCl)c1snc2ccccc12` .
inactive

Please indicate how the test categorized `CN(C(=O)CCCCl)c1snc2ccccc12` .
inactive

Please indicate how the test categorized `Nc1snc2ccc(Cl)cc12` .
active

Please indicate how the test categorized `C[n+]1ccn(CCC[n+]2ccc(C(N)=O)cc2)c1/C=N/O` .
inactive

Please indicate how the test categorized `CCc1cccc(CC)c1N(COC)C(=O)CCl` .
inactive

Please indicate how the test categorized `Cc1ccc2nsc(N)c2c1` .
active

Please indicate how the test categorized `c1ccc2sncc2c1` .
inactive

Please indicate how the test categorized `CS(=O)(=O)OCCCNCCCOS(C)(=O)=O` .
active

Please indicate how the test categorized `CCCNc1snc2ccccc12` .
inactive

Please indicate how the test categorized `CN(C)CCn1cc[n+](C)c1/C=N/O` .
inactive

Please indicate how the test categorized `O=C(O)[C@@H]1CS[C@H](c2ccccc2O)N1C(=O)CCS` .
inactive

Please indicate how the test categorized `CC(C)CC(=O)Nc1snc2ccc(Cl)cc12` .
inactive

Please indicate how the test categorized `CC[C@]1(O)C[C@@H]2CN(CCc3c([nH]c4ccccc34)[C@@](C(=O)OC)(c3cc4c(cc3OC)N(C)[C@H]3[C@@](O)(C(=O)OC)[C@H](OC(C)=O)[C@]5(CC)C=CCN6CC[C@]43[C@@H]65)C2)C1` .
inactive
